Test system: SK-OV-3
Test: Antiproliferative activity against human SK-OV-3 cells by MTT assay
Type: functional, cell-based
pIC50: −log10 of the molar value.
Endpoint Name: pIC50

{"Compound": "CN(C)CCN1C(=O)c2cccc3cc(N)cc(c23)C1=O [AMONAFIDE]", "Reported Result": 5.20}
{"Compound": "Cc1ccc(S(=O)(=O)N2CCN(c3c([N+](=O)[O-])cc4c5c(cccc35)C(=O)N(Cc3ccccc3)C4=O)CC2)cc1", "Reported Result": 4.42}
{"Compound": "CN(C)CCN1C(=O)c2cccc3c(N4CCN(C(=O)c5ccccc5)CC4)c([N+](=O)[O-])cc(c23)C1=O", "Reported Result": 5.73}

* * *

Here the recorded log10(IC50) is given for each entry.
Test system: T-24
Test: Antiproliferative activity against human T-24 cells by MTT assay
Assay type: functional, cell-based
Endpoint Name: log10(IC50) (log10 of the value in µM)

{"Compound": "O=C(c1ccccc1)N1CCN(c2c([N+](=O)[O-])cc3c4c(cccc24)C(=O)N(CCO)C3=O)CC1", "Reported Result": 1.00}
{"Compound": "O=C1c2cccc3c(N4CCN(C(=S)SCc5ccccc5)CC4)c([N+](=O)[O-])cc(c23)C(=O)N1CCc1ccc(O)c(O)c1", "Reported Result": 1.03}
{"Compound": "O=C1c2cccc3c(N4CCN(C(=S)SCc5ccccc5)CC4)c([N+](=O)[O-])cc(c23)C(=O)N1CCc1ccc2c(c1)OCO2", "Reported Result": 0.96}
{"Compound": "COc1ccc(CN2C(=O)c3cccc4c(N5CCN(S(=O)(=O)c6ccc(C)cc6)CC5)c([N+](=O)[O-])cc(c34)C2=O)cc1", "Reported Result": 1.15}
{"Compound": "O=C1c2cccc3c(N4CCN(C(=S)SCc5ccccc5)CC4)c([N+](=O)[O-])cc(c23)C(=O)N1Nc1ccccc1", "Reported Result": 1.12}
{"Compound": "O=C1c2cccc3c(N4CCN(C(=S)SCc5ccccc5)CC4)c([N+](=O)[O-])cc(c23)C(=O)N1Cc1ccccc1", "Reported Result": 1.12}
{"Compound": "O=C(c1ccccc1)N1CCN(c2c([N+](=O)[O-])cc3c4c(cccc24)C(=O)N(CCc2ccc(O)c(O)c2)C3=O)CC1", "Reported Result": 1.16}
{"Compound": "CN(C)CCN1C(=O)c2cccc3cc([N+](=O)[O-])cc(c23)C1=O [MITONAFIDE]", "Reported Result": 0.05}
{"Compound": "CCCCN1C(=O)c2cccc3c(N4CCN(S(=O)(=O)c5ccc(C)cc5)CC4)c([N+](=O)[O-])cc(c23)C1=O", "Reported Result": 1.04}
{"Compound": "Cc1ccc(S(=O)(=O)N2CCN(c3c([N+](=O)[O-])cc4c5c(cccc35)C(=O)N(CCc3ccc(O)c(O)c3)C4=O)CC2)cc1", "Reported Result": 1.06}
{"Compound": "CNCCCN1C(=O)c2cccc3c(N4CCN(C(=O)c5ccccc5)CC4)c([N+](=O)[O-])cc(c23)C1=O", "Reported Result": 0.67}
{"Compound": "O=c1[nH]cc(F)c(=O)[nH]1 [FLUOROURACIL]", "Reported Result": 1.60}
{"Compound": "Cc1ccc(S(=O)(=O)N2CCN(c3c([N+](=O)[O-])cc4c5c(cccc35)C(=O)N(Cc3ccccc3)C4=O)CC2)cc1", "Reported Result": 1.10}
{"Compound": "Cc1ccc(S(=O)(=O)N2CCN(c3c([N+](=O)[O-])cc4c5c(cccc35)C(=O)N(CCN(C)C)C4=O)CC2)cc1", "Reported Result": -0.48}
{"Compound": "COc1ccc(CN2C(=O)c3cccc4c(N5CCN(C(=S)SCc6ccccc6)CC5)c([N+](=O)[O-])cc(c34)C2=O)cc1", "Reported Result": 1.03}
{"Compound": "O=C1c2cccc3c(N4CCN(C(=S)SCc5ccccc5)CC4)c([N+](=O)[O-])cc(c23)C(=O)N1Cc1ccco1", "Reported Result": 1.26}
{"Compound": "CC(C)(C)OC(=O)N1CCN(c2c([N+](=O)[O-])cc3c4c(cccc24)C(=O)N(CCc2ccc(O)c(O)c2)C3=O)CC1", "Reported Result": 1.04}
{"Compound": "CC(C)(C)OC(=O)N1CCN(c2c([N+](=O)[O-])cc3c4c(cccc24)C(=O)N(Cc2ccc(Cl)cc2)C3=O)CC1", "Reported Result": 0.98}
{"Compound": "O=C(c1ccccc1)N1CCN(c2c([N+](=O)[O-])cc3c4c(cccc24)C(=O)N(Cc2ccc(Cl)cc2)C3=O)CC1", "Reported Result": 1.32}
{"Compound": "CN(C)CCN1C(=O)c2cccc3c(N4CCN(C(=O)OC(C)(C)C)CC4)c([N+](=O)[O-])cc(c23)C1=O", "Reported Result": -0.08}
{"Compound": "CC(C)(C)OC(=O)N1CCN(c2c([N+](=O)[O-])cc3c4c(cccc24)C(=O)N(CCc2ccc4c(c2)OCO4)C3=O)CC1", "Reported Result": 0.99}
{"Compound": "O=C1c2cccc3c(N4CCN(C(=S)SCc5ccccc5)CC4)c([N+](=O)[O-])cc(c23)C(=O)N1Cc1ccc(Cl)cc1", "Reported Result": 1.01}
{"Compound": "Cc1ccc(S(=O)(=O)N2CCN(c3c([N+](=O)[O-])cc4c5c(cccc35)C(=O)N(CCO)C4=O)CC2)cc1", "Reported Result": 0.83}
{"Compound": "CN(C)CCN1C(=O)c2cccc3c(N4CCN(C(=S)SCc5ccccc5)CC4)c([N+](=O)[O-])cc(c23)C1=O", "Reported Result": 0.31}
{"Compound": "Cc1ccc(S(=O)(=O)N2CCN(c3c([N+](=O)[O-])cc4c5c(cccc35)C(=O)N(Cc3ccc(Cl)cc3)C4=O)CC2)cc1", "Reported Result": 0.80}
{"Compound": "CC(C)(C)OC(=O)N1CCN(c2c([N+](=O)[O-])cc3c4c(cccc24)C(=O)N(CCO)C3=O)CC1", "Reported Result": 1.11}
{"Compound": "O=C1c2cccc3c(N4CCN(C(=S)SCc5ccccc5)CC4)c([N+](=O)[O-])cc(c23)C(=O)N1CCO", "Reported Result": 1.12}
{"Compound": "Cc1ccc(S(=O)(=O)N2CCN(c3c([N+](=O)[O-])cc4c5c(cccc35)C(=O)N(Cc3ccco3)C4=O)CC2)cc1", "Reported Result": 0.93}
{"Compound": "CN(C)CCN1C(=O)c2cccc3c(N4CCN(C(=O)c5ccccc5)CC4)c([N+](=O)[O-])cc(c23)C1=O", "Reported Result": -0.38}
{"Compound": "Cc1ccc(S(=O)(=O)N2CCN(c3c([N+](=O)[O-])cc4c5c(cccc35)C(=O)N(Nc3ccccc3)C4=O)CC2)cc1", "Reported Result": 1.03}
